assay: FBMN analysis of short peptides in small intestine contents and serum after oral DHG; conditions: small intestine contents, 30 min after oral DHG, C57 mice; FBMN feature intensity, peptides smaller than 690 Da
Peptide text beside a SMILES is read from it.
VALUE_KIND: Peptide signal (feature intensity) in the small intestine, 30 min

Examples from the recorded data:
INSERT INTO results (molecule, result) VALUES
  ('N[C@@H](CCC(=O)O)C(=O)N[C@@H](Cc1ccc(O)cc1)C(=O)O [Glu-Tyr] (H-Glu-Tyr-OH)', '6.78E+05'),
  ('CC[C@H](C)[C@H](NC(=O)CN)C(=O)O [Gly-Ile] (H-Gly-Ile-OH)', '1.17E+07');

(Q) Entry CC[C@H](C)[C@H](NC(=O)[C@@H](N)Cc1cnc[nH]1)C(=O)O [His-Ile] (H-His-Ile-OH) has what Peptide signal (feature intensity) in the small intestine, 30 min?
(A) 1.87E+07
